Reported melting point is given for each of the following molecules.
READOUT: melting point

1) CC(C)[C@H]1NC(=O)[C@H](CS)NC1=O :: > 275 °C
2) O=C1CNC(=O)[C@@H](CSC(c2ccccc2)(c2ccccc2)c2ccccc2)N1 (stereo in doubt) :: 225 to 227 °C
3) O=C1CNC(=O)[C@H](CS)N1 :: 258 °C
4) CCOC1=N[C@@H](CSCC)C(=O)N[C@@H]1Cc1ccccc1 :: 118 °C
5) CC(C)(C)SC[C@H]1NC(=O)[C@H](CS)NC1=O :: > 280 °C (dec.)
6) O=C1N[C@@H](CSSc2ccccc2)C(=O)N2CCC[C@H]12 :: 120 °C
